Test: recombinant UMI read abundance after kanamycin selection (control-corrected) (log10(CPM+1)); higher = more efficient recombination; extreme values may be limits of the assay; sequences stand for … in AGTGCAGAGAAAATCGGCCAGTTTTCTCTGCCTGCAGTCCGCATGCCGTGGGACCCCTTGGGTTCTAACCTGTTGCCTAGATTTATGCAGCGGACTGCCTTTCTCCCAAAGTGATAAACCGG…AGGTTGGTTTCACT; site = the 11-nt donor;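 note: IS621 bridge recombinase in Escherichia coli cells against a fixed T5 target plasmid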
QUANTITY_KIND: recombinant UMI read abundance (log10)
Provide a numeric answer; units are not to be included.

Consider GTTATAACATGGACCGGTTTTCCCGGTAATCCGTATTTGGC (site GTTATAACTGC) . Its measured recombinant UMI read abundance (log10) is 1.28

Consider CTCTACTCATGGACCGGTTTTCCCGGTAATCCGTATTTGCT (site CTCTACTCTAG) . Its measured recombinant UMI read abundance (log10) is 2.5

Consider CTCCACACATGGACCGGTTTTCCCGGTAATCCGTATTTGAC (site CTCCACACTGT) . Its measured recombinant UMI read abundance (log10) is 2.47

Consider ACGGTATCATGGACCGGTTTTCCCGGTAATCCGTATTTGGG (site ACGGTATCTCC) . Its measured recombinant UMI read abundance (log10) is 1.62

Consider AATTATTCATGGACCGGTTTTCCCGGTAATCCGTATTTGGA (site AATTATTCTTC) . Its measured recombinant UMI read abundance (log10) is 2.28

Consider GTCTGACCATGGACCGGTTTTCCCGGTAATCCGTATTTGAG (site CAGGCTGCTTA) . Its measured recombinant UMI read abundance (log10) is 0.0145

Consider TAGAATCCATGGACCGGTTTTCCCGGTAATCCGTATTTGCA (site TAGAATTCTTG) . Its measured recombinant UMI read abundance (log10) is 0

Consider CAAGCAGCATGGACCGGTTTTCCCGGTAATCCGTATTTGGT (site CAAGCAGCTAG) . Its measured recombinant UMI read abundance (log10) is 1.5

Consider AGGCAGACATGGACCGGTTTTCCCGGTAATCCGTATTTGCA (site AGGCAGACTTG) . Its measured recombinant UMI read abundance (log10) is 2.49
